- experiment: Selectivity ratio Ki for PDE4D4 to Ki for PDE4B3
property: Ratio Ki
Just the number, please.

[[record]]
structure_notation = "Fc1cccc(-c2nnc(NCCCN3CCN(c4ncccn4)CC3)c3cc4ccccn4c23)c1"
property = "Ratio Ki"
data_value = 29

[[record]]
structure_notation = "Cc1cc2c(NCCCN3CCN(C(=O)c4cccnc4)CC3)nnc(-c3cccc([N+](=O)[O-])c3)c2n1C"
property = "Ratio Ki"
data_value = 35

[[record]]
structure_notation = "Cc1cc2c(NCCCN3CCN(C(=O)c4ccnnc4)CC3)nnc(-c3cccc([N+](=O)[O-])c3)c2n1C"
property = "Ratio Ki"
data_value = 12

[[record]]
structure_notation = "Cc1cccc(-c2nnc(NCCCN3CCN(c4ncccn4)CC3)c3cc4ccccn4c23)c1"
property = "Ratio Ki"
data_value = 13


For the next question, use this compound.
Please report the recorded Ratio Ki for Cc1cc2c(NCCCN3CCN(C(=O)c4cncs4)CC3)nnc(-c3cccc([N+](=O)[O-])c3)c2n1C .
57
